# Assayed system: T1, CDK9/cyclin T1 (Homo sapiens, UniProt P50750)
# T1 construct: purchased Thermo Fisher Scientific, Madison, WI, USA
# T1 sequence (P50750 whole entry): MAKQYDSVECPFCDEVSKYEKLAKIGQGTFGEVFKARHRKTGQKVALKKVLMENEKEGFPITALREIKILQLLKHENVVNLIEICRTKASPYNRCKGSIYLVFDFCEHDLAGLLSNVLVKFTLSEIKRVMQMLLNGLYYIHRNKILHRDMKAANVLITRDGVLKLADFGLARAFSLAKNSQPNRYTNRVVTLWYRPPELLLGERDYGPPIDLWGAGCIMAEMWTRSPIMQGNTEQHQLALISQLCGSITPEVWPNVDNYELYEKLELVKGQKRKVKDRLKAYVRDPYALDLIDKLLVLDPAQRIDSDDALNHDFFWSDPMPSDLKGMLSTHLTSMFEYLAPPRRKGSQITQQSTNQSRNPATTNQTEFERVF
# T1 sequence (O60563 whole entry partner): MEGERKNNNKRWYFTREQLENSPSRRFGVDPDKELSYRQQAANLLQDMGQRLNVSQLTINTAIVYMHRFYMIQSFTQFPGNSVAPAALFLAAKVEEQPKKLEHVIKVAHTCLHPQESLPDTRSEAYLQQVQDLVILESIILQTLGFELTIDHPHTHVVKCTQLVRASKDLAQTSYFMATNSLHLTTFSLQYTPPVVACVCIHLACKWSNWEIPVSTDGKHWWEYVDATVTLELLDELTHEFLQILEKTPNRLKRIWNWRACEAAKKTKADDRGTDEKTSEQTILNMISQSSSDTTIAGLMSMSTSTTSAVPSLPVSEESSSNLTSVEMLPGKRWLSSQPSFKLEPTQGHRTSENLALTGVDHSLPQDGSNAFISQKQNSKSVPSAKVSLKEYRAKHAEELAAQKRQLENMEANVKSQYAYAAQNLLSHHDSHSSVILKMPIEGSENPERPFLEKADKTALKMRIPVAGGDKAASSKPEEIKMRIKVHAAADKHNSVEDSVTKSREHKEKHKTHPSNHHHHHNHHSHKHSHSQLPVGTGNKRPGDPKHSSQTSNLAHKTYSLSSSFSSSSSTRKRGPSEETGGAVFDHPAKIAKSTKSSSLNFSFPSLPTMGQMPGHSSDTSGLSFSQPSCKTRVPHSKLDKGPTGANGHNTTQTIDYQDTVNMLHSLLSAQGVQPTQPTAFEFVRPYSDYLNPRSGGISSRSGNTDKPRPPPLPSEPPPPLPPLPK
# Method summary: ADAPTA kinase assay (TR-FRET), CDK9 inhibition
# Format: biochemical
# Protocol conditions: CDK9 inhibitory activity; 10 concentration points, average of two independent experiments; read-out: Experimental IC50
Recorded metric: IC50

INSERT INTO measurements (compound, measured_value) VALUES
  ('COc1cc2c(c3oc(=O)c(CCC(=O)NC4C=CS(=O)(=O)C4)c(C)c13)CCC(C)(C)O2 (stereo not shown) [Compound 5]', '107 µM'),
  ('COc1ccc(F)cc1-c1cc(N2CCN(S(=O)(=O)Cc3ccccc3)CC2)ncn1 [Compound 3]', '28.6 µM'),
  ('COC(=O)c1c(NC(=O)c2nn3c(C(F)(F)F)cc(-c4ccc(Br)cc4)nc3c2Cl)sc2c1CCCC2 [Compound 14]', '> 133 µM'),
  ('Cn1nc(C(=O)N2CCC(c3cc(O)nc(N4CCCC4)n3)C2)c2ccccc21 (stereo not shown) [Compound 9]', '> 133 µM'),
  ('CCC(Sc1nc2sc(C(=O)N(C)C)c(C)c2c(=O)n1CCc1ccccc1)C(=O)NC1CCCCC1 (stereo not shown) [Compound 13]', '> 133 µM'),
  ('Cc1nn(-c2ccc(F)cc2)c2nc(CCC(C)C)nc(N3CCN(C(=O)C4CC4c4ccccc4)CC3)c12 (stereo not shown) [Compound 4]', '67.2 µM'),
  ('COc1ccccc1-c1ccnc(NC2CC3CCC(C2)N3C)n1 (stereo not shown) [Compound 1]', '3.51 µM'),
  ('Cc1cc(N2CCC3(NC(=O)c4cccc(C(C)C)n4)CCCC23)nc(CO)n1 (stereo not shown) [Compound 8]', '> 133 µM'),
  ('COc1ccc(OC)c(-c2cc(C(=O)NCC3CCN(c4ncccn4)CC3)n(C)n2)c1 [Compound 11]', '> 133 µM'),
  ('Cc1cc(NC2CCN(c3ncccc3F)C2)nc(C)n1 (stereo not shown) [Compound 10]', '> 133 µM'),
  ('CCOC(=O)c1sc(NC(=S)Nc2c(C)n(C)n(-c3ccccc3)c2=O)c(C(=O)OCC)c1C [Compound 2]', '16.8 µM'),
  ('O=S(=O)(N1CCCC1)N1CCN(c2ncnc3scc(-c4ccc(F)cc4)c23)CC1 [Compound 6]', '133 µM'),
  ('Nc1c2c(-c3ccccc3Cl)nc(N3CCCC3)nc2nn1-c1ccc(F)cc1 [Compound 12]', '> 133 µM');
